Value source: the supplement of paper PMC13172266

# Tested on: U2932 parental
# test.name: cell proliferation relative to vehicle (% of vehicle); higher = less growth inhibition
# condition.details: 50 nM; 72 h
measured.endpoint: cell proliferation
// response body must contain only the number

For the record COc1cc(Nc2ncc(F)c(Nc3ccc4c(n3)NC(=O)C(C)(C)O4)n2)cc(OC)c1OC [R406 (free base)] , what value of cell proliferation is listed for U2932 parental? 94.8

For the record Nc1ccccc1NC(=O)c1ccc(CNC(=O)OCc2cccnc2)cc1 [Entinostat (MS-275)] , what value of cell proliferation is listed for U2932 parental? 93.2

For the record CN1CCC(CNc2ccc3ncc(-c4cccc(OC(F)(F)F)c4)n3n2)CC1 [SGI-1776 free base] , what value of cell proliferation is listed for U2932 parental? 95.5

For the record COc1cc2c(Oc3ccc(NC(=O)C4(C(=O)Nc5ccc(F)cc5)CC4)cc3F)ccnc2cc1OCCCN1CCOCC1 , what value of cell proliferation is listed for U2932 parental? 92.7
